Test system: P. mirabilis 889
runDescription: MIC against human bacteria in vitro (nutrient agar, chocolated horse blood)
Type: cell-based
recordedConditions: Proteus mirabilis; human; P. mirabilis 889; 18 hours at 37° C; read-out: MIC
Here, each record is paired with measured MIC data.

Known results for compounds:
INSERT INTO assay_data (compound, endpointvalue) VALUES
  ('CC(=Cc1nnc(-c2ccco2)o1)CC1OCC(CC2OC2C(C)C(C)O)C(O)C1O (stereo not shown)', '> 128 µg/mL'),
  ('CC(=Cc1nnnn1CCCCCCCCC(=O)O)CC1OCC(CC2OC2C(C)C(C)O)C(O)C1O (stereo not shown)', '> 128 µg/mL'),
  ('CC(=Cc1nnc(-c2cccc(C#N)c2)o1)CC1OCC(CC2OC2C(C)C(C)O)C(O)C1O (stereo not shown)', '> 64 µg/mL'),
  ('CC(=Cc1nnnn1Cc1ccc([N+](=O)[O-])cc1)CC1OCC(CC2OC2C(C)C(C)O)C(O)C1O (stereo not shown)', '> 100 µg/mL'),
  ('CC(=Cc1nc(-c2ccccc2)no1)CC1OCC(CC2OC2C(C)C(C)O)C(O)C1O (stereo not shown)', '> 128 µg/mL'),
  ('COC(=O)CCCCCCCCn1nnnc1C=C(C)CC1OCC(CC2OC2C(C)C(C)O)C(O)C1O (stereo not shown)', '> 64 µg/mL'),
  ('CSc1ccc(-c2nnc(C=C(C)CC3OCC(CC4OC4C(C)C(C)O)C(O)C3O)o2)cc1 (stereo not shown)', '> 128 µg/mL'),
  ('CC(=Cc1nnc(-c2cccnc2)o1)CC1OCC(CC2OC2C(C)C(C)O)C(O)C1O (stereo not shown)', '> 128 µg/mL');

Value sought: MIC, system P. mirabilis 889, item CC(=Cc1noc(-c2ccccc2)n1)CC1OCC(CC2OC2C(C)C(C)O)C(O)C1O (stereo not shown) . Result: > 128 µg/mL

Value sought: MIC, system P. mirabilis 889, item CC(=Cc1nnc(-c2ccc(N(C)C)cc2)o1)CC1OCC(CC2OC2C(C)C(C)O)C(O)C1O (stereo not shown) . Result: > 128 µg/mL
